Just for reference, paper PMC6556873 is where these values come from.

# assayNotes: in vitro
# Parameters: species or system HB2, CCD841
# details: human, hek293 cells
Lab note: anything with viability at 48 h, 10 µM below 90% is marked t; values at 90% or higher are marked f.

Exam item: Please let me know if CN(Cc1cc(Br)cs1)C(=O)CCl [PCM-0103081] shows viability at 48 h, 10 µM below 90%.
Marked response: t

Exam item: Please let me know if C=CC(=O)NC1(c2nc(C)cs2)CCOCC1 [PCM-0102601] shows viability at 48 h, 10 µM below 90%.
Marked response: f

Exam item: Please let me know if CC(C)n1nccc1NC(=O)CCl.Cl [PCM-0102472] shows viability at 48 h, 10 µM below 90%.
Marked response: f

Exam item: Please let me know if O=C(CCl)N1CCN(C(=O)C2CC2)CC1 [PCM-0102970] shows viability at 48 h, 10 µM below 90%.
Marked response: t

Exam item: Please let me know if C=CC(=O)NC(C)C(=O)N1CCc2ccccc21 (stereo not shown) [PCM-0102486] shows viability at 48 h, 10 µM below 90%.
Marked response: f

Exam item: Please let me know if CC(C)CNC(=O)NC(=O)CCl [PCM-0102502] shows viability at 48 h, 10 µM below 90%.
Marked response: t
